# study.target: stromelysin 1 (UniProt P08254 100-477, limits assumed)
# Sequence (P08254 100-477 limits assumed): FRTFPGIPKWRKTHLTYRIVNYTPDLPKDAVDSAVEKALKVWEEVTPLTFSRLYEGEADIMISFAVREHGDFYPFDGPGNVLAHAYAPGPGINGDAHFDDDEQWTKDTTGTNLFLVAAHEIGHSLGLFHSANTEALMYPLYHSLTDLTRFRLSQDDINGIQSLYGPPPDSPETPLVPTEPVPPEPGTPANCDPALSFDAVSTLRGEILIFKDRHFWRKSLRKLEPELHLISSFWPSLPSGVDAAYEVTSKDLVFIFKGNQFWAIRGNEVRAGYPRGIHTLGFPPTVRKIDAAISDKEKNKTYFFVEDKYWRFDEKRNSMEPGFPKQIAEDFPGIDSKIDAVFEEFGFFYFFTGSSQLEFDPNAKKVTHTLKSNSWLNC
# protocol: cell-based or functional assay
*1 amine or outer side, *2 acyl side, *3 side chain or, on linkers, in order; H or OH if unused. [ ]: non-standard residue; d: D form. The star is where a group is joined. Dnp = O=[N+]([O-])c1ccc(*)c([N+](=O)[O-])c1; C(Me) = CSC[C@H](N[*:1])C(=O)[*:2]
I'd appreciate it if you could supply Selectivity v. Coll-3 values for the items below.
Report as a plain number; the unit unitless is understood.

Requested field: Selectivity v. Coll-3. Item: Dnp-GPLGLHG[C(Me)]-NH2 (SMILES CSC[C@H](NC(=O)CNC(=O)[C@H](Cc1c[nH]cn1)NC(=O)[C@H](CC(C)C)NC(=O)CNC(=O)[C@H](CC(C)C)NC(=O)[C@@H]1CCCN1C(=O)CNc1ccc([N+](=O)[O-])cc1[N+](=O)[O-])C(N)=O) [Dnp-GPLGLHGC(Me)-NH2] 10400

Do the same for Dnp-PHPFRG-NH2 (SMILES N=C(N)NCCC[C@H](NC(=O)[C@H](Cc1ccccc1)NC(=O)[C@@H]1CCCN1C(=O)[C@H](Cc1c[nH]cn1)NC(=O)[C@@H]1CCCN1c1ccc([N+](=O)[O-])cc1[N+](=O)[O-])C(=O)NCC(N)=O) [Dnp-PHPFRG-NH2] please 1050

Do the same for Dnp-GPVNLHGR[C(Me)]-NH2 (SMILES CSC[C@H](NC(=O)[C@H](CCCNC(=N)N)NC(=O)CNC(=O)[C@H](Cc1c[nH]cn1)NC(=O)[C@H](CC(C)C)NC(=O)[C@H](CC(N)=O)NC(=O)[C@@H](NC(=O)[C@@H]1CCCN1C(=O)CNc1ccc([N+](=O)[O-])cc1[N+](=O)[O-])C(C)C)C(N)=O) [Dnp-…(Me)-NH2] please 510

Do the same for Dnp-GPSGIHL-NH2 (SMILES CC[C@H](C)[C@H](NC(=O)CNC(=O)[C@H](CO)NC(=O)[C@@H]1CCCN1C(=O)CNc1ccc([N+](=O)[O-])cc1[N+](=O)[O-])C(=O)N[C@@H](Cc1c[nH]cn1)C(=O)N[C@@H](CC(C)C)C(N)=O) [Dnp-GPSGIHL-NH2] please 2040

Do the same for Dnp-GPKGITS-NH2 (SMILES CC[C@H](C)[C@H](NC(=O)CNC(=O)[C@H](CCCCN)NC(=O)[C@@H]1CCCN1C(=O)CNc1ccc([N+](=O)[O-])cc1[N+](=O)[O-])C(=O)N[C@H](C(=O)N[C@@H](CO)C(N)=O)[C@@H](C)O) [Dnp-GPKGITS-NH2] please 37000

Do the same for Dnp-V[C(Me)]PKGITS[C(Me)]VFR-NH2 (SMILES CC[C@H](C)[C@H](NC(=O)CNC(=O)[C@H](CCCCN)NC(=O)[C@@H]1CCCN1C(=O)[C@H](CSC)NC(=O)[C@@H](Nc1ccc([N+](=O)[O-])cc1[N+](=O)[O-])C(C)C)C(=O)N[C@H](C(=O)N[C@@H](CO)C(=O)N[C@@H](CSC)C(=O)N[C@H](C(=O)N[C@@H](Cc1ccccc1)C(=O)N[C@@H](CCCNC(=N)N)C(N)=O)C(C)C)[C@@H](C)O) [Dnp-VC(Me)PKGITSC(Me)VFR-NH2] please 835
